Below, each entry is listed with its recorded IC50.
# target: PIK3Cδ (Homo sapiens (Human))
# Sequence (O00329 whole entry, looked up): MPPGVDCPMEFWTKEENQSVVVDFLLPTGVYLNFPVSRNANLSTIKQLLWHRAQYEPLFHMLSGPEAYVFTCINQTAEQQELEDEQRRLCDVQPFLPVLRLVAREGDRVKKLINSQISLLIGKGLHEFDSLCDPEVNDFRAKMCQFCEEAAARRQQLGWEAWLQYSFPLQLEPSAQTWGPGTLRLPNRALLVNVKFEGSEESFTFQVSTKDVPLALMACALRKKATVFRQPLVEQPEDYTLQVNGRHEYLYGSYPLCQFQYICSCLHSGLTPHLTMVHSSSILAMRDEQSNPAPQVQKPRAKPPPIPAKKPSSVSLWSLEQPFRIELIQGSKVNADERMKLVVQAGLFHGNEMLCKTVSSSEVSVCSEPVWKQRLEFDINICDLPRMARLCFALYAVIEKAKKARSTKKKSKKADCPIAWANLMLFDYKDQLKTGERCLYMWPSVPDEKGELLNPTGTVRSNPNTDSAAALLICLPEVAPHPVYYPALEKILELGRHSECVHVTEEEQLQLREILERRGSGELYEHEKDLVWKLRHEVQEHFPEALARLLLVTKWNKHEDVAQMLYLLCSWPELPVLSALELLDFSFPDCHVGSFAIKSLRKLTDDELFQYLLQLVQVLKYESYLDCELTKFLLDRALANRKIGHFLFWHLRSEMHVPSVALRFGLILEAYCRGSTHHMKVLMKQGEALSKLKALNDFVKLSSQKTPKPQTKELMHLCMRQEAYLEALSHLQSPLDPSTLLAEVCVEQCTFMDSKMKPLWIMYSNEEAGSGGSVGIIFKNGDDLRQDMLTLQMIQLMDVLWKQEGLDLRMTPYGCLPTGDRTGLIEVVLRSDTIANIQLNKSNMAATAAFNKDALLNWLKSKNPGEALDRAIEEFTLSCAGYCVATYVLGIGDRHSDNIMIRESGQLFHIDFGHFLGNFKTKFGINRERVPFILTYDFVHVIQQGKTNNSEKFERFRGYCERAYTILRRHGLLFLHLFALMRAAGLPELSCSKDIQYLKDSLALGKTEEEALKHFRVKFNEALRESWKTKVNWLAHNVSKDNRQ
# Sequence (P27986 whole entry partner, looked up): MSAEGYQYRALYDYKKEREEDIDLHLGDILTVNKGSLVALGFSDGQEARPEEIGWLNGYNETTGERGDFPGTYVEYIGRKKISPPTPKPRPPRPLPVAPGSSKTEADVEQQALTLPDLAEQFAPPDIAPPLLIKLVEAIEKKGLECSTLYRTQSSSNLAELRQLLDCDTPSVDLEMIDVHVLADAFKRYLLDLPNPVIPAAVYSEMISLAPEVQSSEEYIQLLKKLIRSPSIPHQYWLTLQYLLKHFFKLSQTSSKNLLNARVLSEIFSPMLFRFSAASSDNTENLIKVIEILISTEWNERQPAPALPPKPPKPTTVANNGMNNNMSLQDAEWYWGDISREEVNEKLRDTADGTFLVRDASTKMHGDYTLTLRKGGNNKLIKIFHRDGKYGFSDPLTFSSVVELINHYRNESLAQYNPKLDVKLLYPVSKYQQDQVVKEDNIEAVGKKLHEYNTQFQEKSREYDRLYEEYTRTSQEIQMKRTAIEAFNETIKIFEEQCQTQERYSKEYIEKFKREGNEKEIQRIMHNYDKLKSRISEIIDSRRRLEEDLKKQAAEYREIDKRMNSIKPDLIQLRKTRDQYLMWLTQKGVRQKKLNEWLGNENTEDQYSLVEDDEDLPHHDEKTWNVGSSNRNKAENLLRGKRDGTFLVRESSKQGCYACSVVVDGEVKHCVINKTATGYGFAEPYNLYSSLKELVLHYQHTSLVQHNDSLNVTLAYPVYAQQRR
# test: PI3K biochemical potency assay (Assay c), PIK3Cδ
measured property: IC50

>>> df
                                   compound  assay_result
0  CC(C)n1c(=O)n(C)c2nnc3ccc(-c4ccc([C@@H](C)OCCN5CC[C@@H](OC6CC6)C5)nc4)cc3c21 [Example 76]       > 10 µM
1  CC(C)n1c(=O)n(C)c2nnc3ccc(-c4ccc([C@@H](C)OCCN5CCC6(CC6)C5)nc4)cc3c21 [Example 53]       > 10 µM
2  C[C@@H](OCCN1CCC2(CC2)C1)c1ccc(-c2ccc3nnc4c(c3c2)n(C2CCOCC2)c(=O)n4C)cn1 [Example 102]       > 10 µM
